Values from patent US20230272097A1

Molecular target: T1, canine OX40L, full length membrane form, expressed on the cell surface (HEK293 or MEF cells stably … (canine (dog, beagle)))
T1 construct: The same protein is used on HEK293 and on MEF cells; also called HEK-OX40L; OX40L expressing HEK293 cells
T1 chain: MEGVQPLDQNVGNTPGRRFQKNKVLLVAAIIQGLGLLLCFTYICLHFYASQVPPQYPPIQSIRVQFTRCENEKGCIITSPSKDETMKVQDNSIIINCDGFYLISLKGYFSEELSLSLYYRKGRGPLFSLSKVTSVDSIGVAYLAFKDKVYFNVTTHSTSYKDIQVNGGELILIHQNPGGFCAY
Assay: flow cytometry titration on MEF cells expressing OX40L; Kd (EC50) from GeoMean vs concentration, Prism four parameter fit
measured-property: Kd (nM)
Just the number please, in nM, no unit attached.

Check out these entries, answers already filled in.
[
  {
    "binder": "PMX016 (antibody, V domains shown, Canine variable regions) VH: EVQLVESGGDLVKPGGSLRLSCVASGFTFSNYHMNWVRQAPGKGLQWVAYITSDGIVSSYADVVKGRFTISRDNAKNTLFLQMNSLRAEDTAVYYCASGLFLVVGGGTFWGQGTLVTVSS VL: SYVLTQLPSKNVTLKQPAHITCGGDNIGSKSVHWYQQKLGQAPVLIIYSDSSRPTGIPERFSGANSGNTATLTISGALAEDEADYYCQVWDSSAKASVFGGGTHLTVL",
    "Kd (nM)": 108
  },
  {
    "binder": "PMX017 (antibody, V domains shown, Canine variable regions) V domain 1: EVQLVESGGDLVKPGGSLRLSCVASGFTFSSYHMSWVRQAPGKGLQWVAYIASGGTVTTYADAVRGRFTISRDNAKNMLYLQMNSLRAEDSAVYYCTRWKGGTFGYGMDYWGHGTSLFVSS V domain 2: SYVLTQLPSKNVTLKQPAHITCGGDNIGSKSVHWYQQKLGQAPVLIIYYDNNRPAGIPERFSGANSGNTATLTISGALAEDEADYYCQVWDSSAKASVFGGGTHLTVL",
    "Kd (nM)": 10.7
  }
]

(Q) Sample PMX014 (antibody, V domains shown, Canine variable regions) VH: EVQLVESGGDLVKPGGSLRLSCVASGFTFSNFHMSWVRQAPGKGLQWVAYINSGGFNINYEDAVRGRFTISRDNAKNTLYLQMNSLRAEDTAIYYCARDWDTHLDTNWFYYWGQGTLVTVSS VL: SYVLTQLPSKNVTLKQSAHITCRGDNIGSKSVHWYQQKLGQAPVLIIYYDSSRPTGIPERFSGANSGNTATLTISGALAEDEADYYCQVWDISAKASVFGGGTHLTVL — what was its Kd?
(A) 1.11
